# Subject of test: butyrylcholine esterase (BuChE) (Mus musculus, UniProt Q03311)
# Construct: brain homogenate and serum of mouse were used as choline esterase enzyme sources; from tissue; host or cells: mouse serum
# Sequence (Q03311 30-603): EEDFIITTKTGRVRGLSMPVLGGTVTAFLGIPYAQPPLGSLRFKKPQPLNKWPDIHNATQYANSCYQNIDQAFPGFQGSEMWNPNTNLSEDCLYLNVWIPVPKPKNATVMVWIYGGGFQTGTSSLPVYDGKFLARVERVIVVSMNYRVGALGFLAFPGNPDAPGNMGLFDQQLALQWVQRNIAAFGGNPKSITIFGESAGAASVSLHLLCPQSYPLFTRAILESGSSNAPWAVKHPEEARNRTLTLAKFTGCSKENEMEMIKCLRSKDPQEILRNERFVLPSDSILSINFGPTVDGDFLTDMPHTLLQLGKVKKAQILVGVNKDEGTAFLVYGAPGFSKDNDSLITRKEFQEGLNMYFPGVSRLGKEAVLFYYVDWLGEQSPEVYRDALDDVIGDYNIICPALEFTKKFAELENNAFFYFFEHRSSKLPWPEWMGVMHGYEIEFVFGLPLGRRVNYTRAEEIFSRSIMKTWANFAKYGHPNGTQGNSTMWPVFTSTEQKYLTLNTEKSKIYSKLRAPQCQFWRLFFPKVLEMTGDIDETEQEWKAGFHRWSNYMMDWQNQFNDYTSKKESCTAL
# Procedure details: In vitro assay for choline esterase inhibition (Ellman method), butyrylthiocholine substrate, mouse serum
# Type: biochemical
# Protocol: For measurement of esterase activity, brain homogenate and serum of mouse were used as choline esterase enzyme sources, and the method of Ellman et. al (Biochemical pharmacology 7: 88-95 1961) were referred. […] After incubation, thiocholine was produced by enzyme reaction in the mixture, and then, the yellow product was formed by the reaction of thiocholine and DTNB. […] And the selectivity for BuChE inhibition of each compound was calculated by the ratio: IC50 (AchE)/IC50 (BuChE).
pIC50: −log10 of the molar value.
Rule: true (1) for pIC50 not less than 7, false (0) for anything less.

{"Compound": "CC(=O)NCCC1CN(Cc2ccccc2)c2ccc(OC(=O)Nc3ccc(C(C)C)cc3)cc21 (centres unmarked)", "Label value": "false (0)"}
{"Compound": "CNC(=O)Oc1ccc2c(c1)CCN2Cc1ccccc1 [Example 131, 1-benzylindolin-5-yl methylcarbamate]", "Label value": "false (0)"}
{"Compound": "O=C(NCCC1CCN(Cc2ccccc2)CC1)Oc1ccc2c(c1)CCN2Cc1ccccc1", "Label value": "true (1)"}
{"Compound": "CC(C)c1ccc(NC(=O)Oc2ccc3c(c2)CCN3CCc2ccccc2)cc1", "Label value": "false (0)"}
{"Compound": "C[C@H](NC(=O)Oc1ccc2c(c1)CCN2Cc1ccccc1)c1ccccc1", "Label value": "false (0)"}
{"Compound": "CN(C)CC(C)(C)CNC(=O)Oc1ccc2c(c1)CCN2Cc1ccccc1", "Label value": "false (0)"}
{"Compound": "CC(C)c1ccc(NC(=O)Oc2ccc3c(c2)CCN3Cc2ccccc2O)cc1", "Label value": "false (0)"}
{"Compound": "CN(CC1CCOCC1)C(=O)Oc1ccc2c(c1)C(C)(C)CN2Cc1ccncc1", "Label value": "true (1)"}
{"Compound": "CC(C)c1ccc(NC(=O)Oc2ccc3c(c2)CCN3Cc2ccccc2)cc1", "Label value": "false (0)"}
{"Compound": "CCCCCC(C)NC(=O)Oc1ccc2c(c1)CCN2Cc1ccccc1 (centres unmarked) [Example 50, 1-benzylindolin-5-yl 2-heptylcarbamate]", "Label value": "true (1)"}
{"Compound": "CC(C)c1ccc(NC(=O)Oc2ccc3c(c2)CCN3Cc2cccnc2)cc1", "Label value": "false (0)"}
{"Compound": "CN(C)c1ccc(NC(=O)Oc2ccc3c(c2)CCN3Cc2ccccc2)cc1", "Label value": "true (1)"}
{"Compound": "CC(C)(C)C1CCC(NC(=O)Oc2ccc3c(c2)CCN3Cc2ccccc2)CC1 (centres unmarked)", "Label value": "false (0)"}
